tested on: Escherichia coli BW25113; experiment: plate-normalized OD600 growth (mean of duplicates) (OD600 (normalized)); higher = more growth (less inhibition); conditions: temperature: 15°C; 48 h; 10 µM
In all, about 1,600 compounds were measured (“plate-normalized OD600 growth (mean of duplicates)”: median about 0.31, lowest 2% from about 0.23 on). Many of the other results were omitted from the sample, so the lowest values are more common in it than they were.
Value kind: plate-normalized OD600 growth

>>> df
                                    compound                    system                     value_kind  measured
 0  O=C(O)c1ccc2c(c1)C(=O)N(c1c[nH]c(=O)[nH]c1=O)C2=O  Escherichia coli BW25113  plate-normalized OD600 growth     0.239
 1            COc1ccc(NC(=O)c2ccccc2OC)cc1OC  Escherichia coli BW25113  plate-normalized OD600 growth     0.248
 2            CN(C)c1ccc(CN2CCc3ccccc3C2)cc1  Escherichia coli BW25113  plate-normalized OD600 growth     0.244
 3            CCCCOC(=O)Nc1nnc(CCc2ccccc2)s1  Escherichia coli BW25113  plate-normalized OD600 growth     0.265
 4                      NCC(=O)Nc1ccc(Br)cc1  Escherichia coli BW25113  plate-normalized OD600 growth     0.227
 5               c1ccc2c(c1)CCN(Cc1ccncc1)C2  Escherichia coli BW25113  plate-normalized OD600 growth     0.236
 6           Cc1n[nH]c(C)c1CCCCOc1ccc(Br)cc1  Escherichia coli BW25113  plate-normalized OD600 growth     0.216
 7   COc1ccc(C(C)=O)cc1Cc1c(O)nc(SC)[nH]c1=O  Escherichia coli BW25113  plate-normalized OD600 growth     0.247
 8         O=S(=O)(c1ccc(Cl)c(Cl)c1)N1CCCCC1  Escherichia coli BW25113  plate-normalized OD600 growth     0.252
 9                     COCc1cc(C)nc(NN)c1C#N  Escherichia coli BW25113  plate-normalized OD600 growth     0.258
10  COc1ccc(N(C(=O)c2ccc(F)cc2)C2=CC3CCC(C2)N3C)cc1 (stereo not drawn)  Escherichia coli BW25113  plate-normalized OD600 growth     0.247
11            c1ccc(CCN2CCC(N3CCOCC3)CC2)cc1  Escherichia coli BW25113  plate-normalized OD600 growth     0.239
12                     c1ccc(CCCN2CCOCC2)cc1  Escherichia coli BW25113  plate-normalized OD600 growth     0.251

// data source = the supplement of paper PMC4371806
